molecular target: c-Kit(V654A) (Homo sapiens, UniProt P10721, V654A); construct: recombinant human c-Kit, amino acids 544-end containing the V654A mutation; GST (N); assay: c-Kit(V654A) assay (33P-ATP filter binding kinase assay); conditions: recombinant human c-Kit aa 544-end V654A, ATP 200 μM
Sequence (P10721 544-976 V654A): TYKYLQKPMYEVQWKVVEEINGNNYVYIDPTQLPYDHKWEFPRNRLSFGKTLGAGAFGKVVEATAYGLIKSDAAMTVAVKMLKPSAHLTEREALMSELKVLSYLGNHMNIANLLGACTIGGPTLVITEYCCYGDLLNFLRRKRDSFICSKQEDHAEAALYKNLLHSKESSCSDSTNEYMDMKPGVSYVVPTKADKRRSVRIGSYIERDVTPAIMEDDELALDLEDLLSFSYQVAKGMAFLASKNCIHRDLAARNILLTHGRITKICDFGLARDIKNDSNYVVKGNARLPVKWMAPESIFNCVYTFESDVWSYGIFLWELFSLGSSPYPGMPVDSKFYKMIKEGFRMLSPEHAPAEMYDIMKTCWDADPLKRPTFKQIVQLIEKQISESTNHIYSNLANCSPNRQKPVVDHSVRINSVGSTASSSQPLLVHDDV
List of IC50 values.

| molecule | IC50 [nM] |
| --- | --- |
| CC(Nc1cc(-c2cnc3cc(OCCCN4CCCC4)ccn23)ncn1)c1ccc(-c2cnn(C)c2)cc1 (centres unmarked) | 110 |
| Cn1cc(-c2ccc(CNc3cc(-c4cnc5cc(OCCN6CC(F)(F)C6)ccn45)ncn3)cc2)cn1 | 9.6 |
| Cn1ncc(-c2ccc(CNc3cc(-c4cnc5cc(OCCc6cccnc6)ccn45)ncn3)cc2)n1 | 16 |
| FC1(F)CCN(c2ccc(CNc3cc(-c4cnc5ccccn45)ncn3)cn2)C1 | 8.9 |
| COc1ccn2c(-c3cc(NCc4ccc(-c5cnn(CC6CC6)c5)cc4)ncn3)cnc2c1 | 4.8 |
| Cn1cc(-c2ccc(CNc3cc(-c4cnc5cc(OCCCN6CCN(C7COC7)CC6)ccn45)ncn3)cc2)cn1 | 20 |
| c1cn(-c2ccc(CNc3cc(-c4cnc5cc(OCCN6CCOCC6)ccn45)ncn3)cc2)nn1 | 5.7 |
| Cn1cc(-c2ccc(CNc3cc(-c4cnc5cc(OCCN6CCC[C@@H]7OCC[C@@H]76)ccn45)ncn3)cc2)cn1 | 6.5 |
| COc1ccn2c(-c3cc(NCc4ccc(-c5cnn(CCN6CCCC6)c5)cc4)ncn3)cnc2c1 | 160 |
| COc1ccn2c(-c3cc(NCc4ccc(-c5cnn(C)n5)nc4)ncn3)cnc2c1 | 130 |
| Cn1cc(-c2ccc(CNc3cc(-c4cnc5cc(OCCCN6CCOCC6)ccn45)ncn3)cc2)cn1 | 4.8 |
| Cn1ncc(-c2ccc(CNc3cc(-c4cnc5cc(OCC6CCN(C7CC7)CC6)ccn45)ncn3)cc2)n1 | 7 |
| c1ccn2c(-c3cc(NCc4ccc(-c5ncc[nH]5)cc4)ncn3)cnc2c1 | 33 |
| COCCOc1ccn2c(-c3cc(NCc4ccc(-c5cnn(C)c5)cc4)ncn3)cnc2c1 | 7.3 |
| COc1ccn2c(-c3cc(NCc4ccc(-c5coc(C)n5)cc4)ncn3)cnc2c1 | 1.3 |
| CN1CCN(CCOc2ccn3c(-c4cc(NCc5ccc(-n6ccnn6)cc5)ncn4)cnc3c2)CC1 | 4.8 |
| Cn1cc(-c2ccc(CNc3cc(-c4cnc5cc(OCCN6CCC(F)C6)ccn45)ncn3)cc2)cn1 (centres unmarked) | 8.6 |

---

Target: GIST430/654 cell line expressing mutated constitutively active cKIT receptor tyrosine kinase (Δ560-576 deletion and V654A point mutation) (Homo sapiens, UniProt P10721, DEL560-576/V654A)
Construct: endogenous in cells
Sequence (P10721 with tags, fused parts or gaps DEL560-576/V654A): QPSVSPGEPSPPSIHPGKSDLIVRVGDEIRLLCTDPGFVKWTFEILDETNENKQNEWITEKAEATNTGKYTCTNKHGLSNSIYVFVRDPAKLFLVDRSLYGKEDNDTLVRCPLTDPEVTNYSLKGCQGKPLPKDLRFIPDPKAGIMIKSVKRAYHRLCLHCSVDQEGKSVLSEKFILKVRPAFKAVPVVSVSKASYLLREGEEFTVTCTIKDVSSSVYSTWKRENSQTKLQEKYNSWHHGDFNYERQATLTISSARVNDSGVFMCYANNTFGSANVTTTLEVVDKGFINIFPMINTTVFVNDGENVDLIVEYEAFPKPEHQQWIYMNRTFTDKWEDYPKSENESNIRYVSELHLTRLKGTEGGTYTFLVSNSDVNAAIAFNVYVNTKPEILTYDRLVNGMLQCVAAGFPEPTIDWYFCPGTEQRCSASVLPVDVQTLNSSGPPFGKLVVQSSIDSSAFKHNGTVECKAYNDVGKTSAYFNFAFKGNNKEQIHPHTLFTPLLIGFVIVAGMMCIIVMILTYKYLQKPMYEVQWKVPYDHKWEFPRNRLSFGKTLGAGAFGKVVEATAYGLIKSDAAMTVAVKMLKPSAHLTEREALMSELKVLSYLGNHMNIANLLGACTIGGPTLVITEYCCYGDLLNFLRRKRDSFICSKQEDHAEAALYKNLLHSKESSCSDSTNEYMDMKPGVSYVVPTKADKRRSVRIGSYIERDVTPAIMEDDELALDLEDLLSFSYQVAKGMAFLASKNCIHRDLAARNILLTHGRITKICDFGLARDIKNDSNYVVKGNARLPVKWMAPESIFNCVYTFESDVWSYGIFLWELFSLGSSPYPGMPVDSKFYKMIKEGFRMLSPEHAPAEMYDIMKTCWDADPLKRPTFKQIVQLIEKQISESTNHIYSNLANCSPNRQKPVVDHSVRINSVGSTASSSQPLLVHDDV
Experiment: Cellular cKIT autophosphorylation (phospho-Y307-cKIT, Luminex bead assay) in GIST430/654 cells
Settings: compounds 45 min, read-out: GIST 430/654 IC50
Experimental: Assay Principle for Cellular Testing of cKIT Mutant Inhibitors […] Counts from samples treated with compounds were calculated as percent of control from solvent treated (0.3% DMSO) samples. Dose-response curves were fitted and IC50 values were determined using Genedata Screener software.
pIC50: −log10 of the molar value.
pIC50 vs 7: at or above is TRUE, below is FALSE.

| chem.smiles | answer.label |
| --- | --- |
| Cn1cc(-c2ccc(CNc3cc(-c4cnc5cc([N+](=O)[O-])ccn45)ncn3)cc2)cn1 | FALSE |
| Cn1cc(-c2ccc(CNc3cc(-c4cnc5cc(OCCCN[C@@H]6CCOC6)ccn45)ncn3)cc2)cn1 | TRUE |
| Cn1ccc(-c2ccc(CNc3cc(-c4cnc5ccccn45)ncn3)cc2)n1 | FALSE |
| Cn1ncc(-c2ccc(CNc3cc(-c4cnc5cc(OCC6CCN(C7COC7)CC6)ccn45)ncn3)cc2)n1 | TRUE |

---

biological target: GIST430/654 cell line expressing mutated constitutively active cKIT receptor tyrosine kinase (Δ560-576 deletion and V654A point mutation) (Homo sapiens, UniProt P10721, DEL560-576/V654A); construct: endogenous in cells; assay: Cellular cKIT autophosphorylation (phospho-Y307-cKIT, Luminex bead assay) in GIST430/654 cells; conditions: compounds 45 min, read-out: GIST 430/654 IC50
pIC50: −log10 of the molar value.
Recorded pIC50 by entry
measurement.label: pIC50

| compound | numeric.readout |
| --- | --- |
| Cn1ncc(-c2ccc(CNc3cc(-c4cnc5cc(OCCC6CCN(C7COC7)C6)ccn45)ncn3)cc2)n1 (stereo not shown) | 7.21 |
| Cn1ncc(-c2ccc(CNc3cc(-c4cnc5cc(OCCN6CCC6)ccn45)ncn3)cc2)n1 | 7.42 |
| Cn1cc(-c2ccc(CNc3cc(-c4cnc5cc(OC6CCOCC6)ccn45)ncn3)cc2)cn1 | 6.19 |
| COc1ccn2c(-c3cc(NCc4ccc(-c5cnc(C)nc5)cc4)ncn3)cnc2c1 | 5.80 |

---

Here the recorded pIC50 is given for each entry.
target: GIST430/654 cell line expressing mutated constitutively active cKIT receptor tyrosine kinase (Δ560-576 deletion and V654A point mutation) (Homo sapiens, UniProt P10721, DEL560-576/V654A); construct: endogenous in cells; assay: Cellular cKIT autophosphorylation (phospho-Y307-cKIT, Luminex bead assay) in GIST430/654 cells; conditions: compounds 45 min, read-out: GIST 430/654 IC50
pIC50: −log10 of the molar value.
measurement.label: pIC50

| chem.smiles | measurement.label | numeric.readout |
| --- | --- | --- |
| Cn1ncc(-c2ccc(CNc3cc(-c4cnc5cc(OCCN6CC7(COC7)C6)ccn45)ncn3)cc2)n1 | pIC50 | 7.40 |
| Cn1cc(-c2ccc(CNc3cc(-c4cnc5cc(OCCN6CCC(C)(C#N)CC6)ccn45)ncn3)cc2)cn1 | pIC50 | 7.03 |
| c1ccn2c(-c3cc(NCc4ccc(N5CCCC5)nc4)ncn3)cnc2c1 | pIC50 | 6.37 |
| COc1ccn2c(-c3cc(NCc4ccc(-c5cnn(C6CC6)c5)cc4)ncn3)cnc2c1 | pIC50 | 7.05 |
| Cn1cc(-c2ccc(CNc3cc(-c4cnc5cc(OCCN6CCO[C@@H]7COCC[C@@H]76)ccn45)ncn3)cc2)cn1 | pIC50 | 7.07 |
| F[C@@H]1CCN(c2ccc(CNc3cc(-c4cnc5ccccn45)ncn3)cn2)C1 | pIC50 | 6.92 |
| Cn1cc(-c2ccc(CNc3cc(-c4cnc5cc(OCCN6CC7CC(C6)O7)ccn45)ncn3)cc2)cn1 | pIC50 | 6.92 |
| CN1CCO[C@@H](COc2ccn3c(-c4cc(NCc5ccc(-c6cnn(C)c6)cc5)ncn4)cnc3c2)C1 | pIC50 | 7.52 |
| CN1CCN(CCOc2ccn3c(-c4cc(NCc5ccc(-c6cnn(C)c6)cc5)ncn4)cnc3c2)CC1=O | pIC50 | 6.96 |
| Cn1cc(-c2ccc(CNc3cc(-c4cnc5cc(OCCCO)ccn45)ncn3)cc2)cn1 | pIC50 | 7.16 |
| Cn1cc(-c2ccc(CNc3cc(-c4cnc5cc(OCCCN6CCC(C)(F)CC6)ccn45)ncn3)cc2)cn1 | pIC50 | 7.14 |
| c1ccn2c(-c3cc(NCc4ccc(-n5ccnc5)cc4)ncn3)cnc2c1 | pIC50 | 6.30 |
| c1cn(-c2ccc(CNc3cc(-c4cnc5cc(OCCN6CCCC6)ccn45)ncn3)cc2)nn1 | pIC50 | 6.64 |
| COc1ccn2c(-c3cc(NCc4ccc(-c5cnn(CC6CC6)c5)cc4)ncn3)cnc2c1 | pIC50 | 7.24 |
| CN1CCN(CCOc2ccn3c(-c4cc(OCc5ccc(-c6cnn(C)c6)cc5)ncn4)cnc3c2)CC1 | pIC50 | 6.96 |
| COCCOc1ccn2c(-c3cc(NCc4ccc(-c5cccnc5)cc4)ncn3)cnc2c1 | pIC50 | 6.77 |
| COc1ccn2c(-c3cc(NCc4ccc(-c5cn(C)nc5C)cc4)ncn3)cnc2c1 | pIC50 | 6.68 |

---

target: c-Kit(V654A) (Homo sapiens, UniProt P10721, V654A); construct: recombinant human c-Kit, amino acids 544-end containing the V654A mutation; GST (N); assay: c-Kit(V654A) assay (33P-ATP filter binding kinase assay); conditions: recombinant human c-Kit aa 544-end V654A, ATP 200 μM
Classification scheme (IC50): category 1 (below 6 nM), category 2 (6 nM to below 9 nM), category 3 (9 nM or more)

| compound | answer.label |
| --- | --- |
| Cn1cc(-c2ccc(CNc3cc(-c4cnc5cc(OCCN6CCS(=O)(=O)CC6)ccn45)ncn3)cc2)cn1 | category 2 |
| Cn1cc(-c2ccc(CNc3cc(-c4cnc5cc(N)ccn45)ncn3)cc2)cn1 | category 2 |
| Cn1cc(-c2ccc(CNc3cc(-c4cnc5cc(OCCC6CCNC6)ccn45)ncn3)cc2)cn1 (stereo not drawn) | category 3 |
| Cc1nnc2n1CCN(CCOc1ccn3c(-c4cc(NCc5ccc(-c6cnn(C)c6)cc5)ncn4)cnc3c1)C2 | category 3 |
| COc1ccn2c(-c3cc(NCc4ccc(-c5cn(C)nc5C)cc4)ncn3)cnc2c1 | category 3 |
| Cn1cc(-c2ccc(CNc3cc(-c4cnc5cc(OCCC6CCN(C7COC7)C6)ccn45)ncn3)cc2)cn1 (stereo not drawn) | category 1 |
| Cc1nc(-c2ccc(CNc3cc(-c4cnc5cc(OCCO)ccn45)ncn3)cc2)co1 | category 1 |
| CCN(CC)CCCOc1ccn2c(-c3cc(NCc4ccc(-c5cnn(C)c5)cc4)ncn3)cnc2c1 | category 1 |
| Cn1cc(-c2ccc(CNc3cc(-c4cnc5cc(OCC(C)(C)O)ccn45)ncn3)cc2)cn1 | category 2 |
| COCCOc1ccn2c(-c3cc(NCc4ccc(-c5cccnc5)cc4)ncn3)cnc2c1 | category 2 |
| Cn1ncc(-c2ccc(CNc3cc(-c4cnc5cc(OCCN6CC7(COC7)C6)ccn45)ncn3)cc2)n1 | category 1 |
| Cn1cc(-c2ccc(CNc3cc(-c4cnc5cc(OCCN6CCn7nccc7C6)ccn45)ncn3)cc2)cn1 | category 2 |
| Cn1cc(-c2ccc(CNc3cc(-c4cnc5cc(OCCN6CCN(C7COC7)CC6=O)ccn45)ncn3)cc2)cn1 | category 3 |
| CCn1cc(-c2ccc(CNc3cc(-c4cnc5cc(OC)ccn45)ncn3)cc2)cn1 | category 2 |
| Cn1cc(-c2ccc(CNc3cc(-c4cnc5cc(OCCC6(N)COC6)ccn45)ncn3)cc2)cn1 | category 2 |
| CNC1CN(c2ccn3c(-c4cc(NCc5ccc(-c6cnn(C)c6)cc5)ncn4)cnc3c2)C1 | category 3 |
| CN(C)CCCOc1ccn2c(-c3cc(NCc4ccc(-c5cnn(C)c5)cc4)ncn3)cnc2c1 | category 1 |
| c1ccn2c(-c3cc(NCc4ccc(N5CCCC5)nc4)ncn3)cnc2c1 | category 1 |
| COCCOc1ccn2c(-c3cc(NCc4ccc(-c5ccccc5)cc4)ncn3)cnc2c1 | category 1 |
| Cc1nc(-c2ccc(CNc3cc(-c4cnc5cc(OCCN6CCn7nncc7C6)ccn45)ncn3)cc2)co1 | category 1 |
| Cn1cc(-c2ccc(CNc3cc(-c4cnc5cc(OCCCN6CC[S+]([O-])CC6)ccn45)ncn3)cc2)cn1 | category 2 |
| COCCN1CCC(COc2ccn3c(-c4cc(NCc5ccc(-c6cnn(C)c6)cc5)ncn4)cnc3c2)CC1 | category 1 |
| Cn1cc(-c2ccc(CNc3cc(-c4cnc5cc(OCCN6CCOC(F)(F)C6)ccn45)ncn3)cc2)cn1 | category 3 |
| Cn1cc(-c2ccc(CNc3cc(-c4cnc5cc(OCCO)ccn45)ncn3)cc2)cn1 | category 2 |
| COc1ccn2c(-c3cc(NCc4ccc(-c5cnn(C6COC6)c5)cc4)ncn3)cnc2c1 | category 3 |
| CN1CCC(COc2ccn3c(-c4cc(NCc5ccc(-n6ccnn6)cc5)ncn4)cnc3c2)CC1 | category 1 |
| Cn1cc(-c2ccc(CNc3cc(-c4cnc5cc(OCC6CN(C7COC7)C6)ccn45)ncn3)cc2)cn1 | category 2 |
| COCCOc1ccn2c(-c3cc(NCc4ccc(-c5cnn(C)n5)cc4)ncn3)cnc2c1 | category 1 |
| Cn1cc(-c2ccc(CNc3cc(-c4cnc5cc(OCCc6nccn6C)ccn45)ncn3)cc2)cn1 | category 2 |
| COc1ccn2c(-c3cc(NCc4ccc(-c5cnn(C)c5CO)cc4)ncn3)cnc2c1 | category 3 |
| Cn1cc(-c2ccc(CNc3cc(-c4cnc5cc(OCCN6CCN7CCC6C7)ccn45)ncn3)cc2)cn1 (stereo not drawn) | category 2 |
| Cn1cc(-c2ccc(CNc3cc(-c4cnc5cc(OCCN6Cc7ccncc7C6)ccn45)ncn3)cc2)cn1 | category 3 |

Source listed as patent US12655142B2.
